Source listed as patent US9796711B2.

- SYSTEM: ΔF508-CFTR (Homo sapiens, UniProt P13569, DEL508-508)
- Construct: host or cells: CFBE41o-, doxycycline-inducible
- Sequence (P13569 with tags, fused parts or gaps DEL508-508): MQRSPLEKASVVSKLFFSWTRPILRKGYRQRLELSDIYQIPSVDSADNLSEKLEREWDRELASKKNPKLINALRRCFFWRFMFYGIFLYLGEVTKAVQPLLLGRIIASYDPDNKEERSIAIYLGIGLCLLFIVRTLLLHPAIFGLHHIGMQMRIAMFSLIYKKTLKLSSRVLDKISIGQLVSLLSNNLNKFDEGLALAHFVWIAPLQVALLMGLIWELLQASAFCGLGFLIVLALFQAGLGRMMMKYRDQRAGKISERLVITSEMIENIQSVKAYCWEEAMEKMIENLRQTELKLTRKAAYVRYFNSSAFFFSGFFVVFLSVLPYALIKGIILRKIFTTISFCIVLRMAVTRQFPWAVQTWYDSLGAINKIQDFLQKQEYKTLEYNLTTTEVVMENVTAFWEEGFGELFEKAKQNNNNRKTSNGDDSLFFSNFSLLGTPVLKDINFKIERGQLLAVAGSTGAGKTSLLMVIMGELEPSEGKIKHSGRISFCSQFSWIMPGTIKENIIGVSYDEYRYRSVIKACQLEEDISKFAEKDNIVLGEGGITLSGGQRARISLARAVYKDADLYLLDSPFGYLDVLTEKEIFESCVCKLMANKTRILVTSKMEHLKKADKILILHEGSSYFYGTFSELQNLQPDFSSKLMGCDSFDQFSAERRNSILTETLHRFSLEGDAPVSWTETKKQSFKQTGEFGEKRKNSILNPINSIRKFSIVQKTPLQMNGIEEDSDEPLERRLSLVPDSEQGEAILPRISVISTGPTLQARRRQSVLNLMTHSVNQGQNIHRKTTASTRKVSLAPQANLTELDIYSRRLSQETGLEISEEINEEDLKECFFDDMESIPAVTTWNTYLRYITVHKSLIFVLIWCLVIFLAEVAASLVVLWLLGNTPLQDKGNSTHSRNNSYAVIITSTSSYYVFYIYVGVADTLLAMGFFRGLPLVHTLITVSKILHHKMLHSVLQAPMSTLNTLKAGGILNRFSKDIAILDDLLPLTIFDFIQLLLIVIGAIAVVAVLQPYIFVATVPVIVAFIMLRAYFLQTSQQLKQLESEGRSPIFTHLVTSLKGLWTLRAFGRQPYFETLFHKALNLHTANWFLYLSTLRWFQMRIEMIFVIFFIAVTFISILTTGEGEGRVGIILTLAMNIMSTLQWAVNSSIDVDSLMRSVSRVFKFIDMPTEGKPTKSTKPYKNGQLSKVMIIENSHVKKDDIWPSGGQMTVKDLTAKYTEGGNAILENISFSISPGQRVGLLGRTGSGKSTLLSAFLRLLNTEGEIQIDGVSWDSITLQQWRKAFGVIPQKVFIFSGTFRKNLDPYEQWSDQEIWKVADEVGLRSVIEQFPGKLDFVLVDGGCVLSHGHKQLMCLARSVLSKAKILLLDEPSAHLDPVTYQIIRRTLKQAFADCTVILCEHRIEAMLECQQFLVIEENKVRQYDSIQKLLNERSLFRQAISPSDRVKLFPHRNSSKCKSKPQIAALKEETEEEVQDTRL
- EXPERIMENT_DESCRIPTION: CFTR cell surface levels using HRP-tagged ΔF508-CFTR expressing CFBE cells, intrinsic corrector capacity
- Format: cell-based
- PROTOCOL_CONDITIONS: HRP-tagged ΔF508-CFTR CFBE cells; compound alone (intrinsic corrector capacity); 20 hours at 33° C.
PROPERTY: % Activation (%)
Report as a plain number; the unit % is understood.

O=C(O)c1cc(N2CCC(N3CCOCC3)CC2)c2c(C3CCC3)nn(-c3cc(F)ccc3F)c2n1 [compound 916]; 165.25

Fill blank: measured % Activation of the molecule O=C(O)c1cc(N2CCC(N3CCOCC3)CC2)c2c(C3CCC3)nn(-c3ccc(OCCF)nc3)c2n1 [compound 917] is ____.
116.67

---

# % Activation per entry
- SYSTEM: ΔF508-CFTR (Homo sapiens, UniProt P13569, DEL508-508)
- Construct: host or cells: CFBE41o-, doxycycline-inducible
- EXPERIMENT_DESCRIPTION: CFTR cell surface levels using HRP-tagged ΔF508-CFTR expressing CFBE cells, intrinsic corrector capacity
- Type: cell-based
- PROTOCOL_CONDITIONS: HRP-tagged ΔF508-CFTR expressing CFBE cells; intrinsic corrector capacity (no co-corrector); 33° C., 20 hours
- Text: Measuring CFTR Cell Surface Levels Using HRP-Tagged AF508-CFTR Expressing CFBE Cells The HRP-tagged AF508-CFTR cell assay measures the expression of CFTR-ΔF508 at the plasma membrane. […] When HRP-tagged AF508-CFTR is present at the plasma membrane, the HRP enzyme activity can be measured. The amount of CFTR-ΔF508 that can be rescued to the plasma membrane is correlated with the amount of functional enzyme that can be measured. […]
Report as a plain number; the unit % is understood.

Examples with their reported % Activation follow.
O=C(O)c1cc(N2CCC3(CC2)CC(N2CCCC2)CO3)c2c(C3CCC3)nn(-c3ccc(F)cc3)c2n1 (centres unmarked); 186.5
CC1(COc2cc(C(=O)O)nc3c2c(C2CCC2)nn3-c2ccccc2)CC(F)(F)C1; 121.45
O=C(O)c1cc(N2CCC(C(F)CO)CC2)c2c(C3CCC3)nn(-c3ccccc3)c2n1 (centres unmarked); 213.9
CC1(COc2cc(C(=O)O)nc3c2c(C2CCC2)nn3-c2ccccc2)COCOC1; 124.5
O=C(O)c1cc(OCCOC2COC2)c2c(C3CCC3)nn(-c3ccccc3)c2n1; 142.4

Fill blank: measured % Activation of the compound O=C(O)c1cc(N2CCN(CCCN3CCOCC3)CC2)c2c(C3CCC3)nn(-c3ccccc3)c2n1 is ____.
121.3

Fill blank: measured % Activation of the compound CC1(C)CN(C2CCN(c3cc(C(=O)O)nc4c3c(C3CCC3)nn4-c3ccc(F)cc3)CC2)CCO1 is ____.
324.4

Fill blank: measured % Activation of the compound CC1OCC(Oc2cc(C(=O)O)nc3c2c(C2CCC2)nn3-c2ccccc2)CO1 (centres unmarked) is ____.
129.05

---

# % Activation per entry
- SYSTEM: ΔF508-CFTR (Homo sapiens, UniProt P13569, DEL508-508)
- Construct: host or cells: CFBE41o-, doxycycline-inducible
- EXPERIMENT_DESCRIPTION: CFTR cell surface levels using HRP-tagged ΔF508-CFTR expressing CFBE cells, in the presence of a co-corrector
- Format: cell-based
- PROTOCOL_CONDITIONS: HRP-tagged ΔF508-CFTR expressing CFBE cells, in the presence of 3 μM co-corrector
- Text: Measuring CFTR Cell Surface Levels Using HRP-Tagged AF508-CFTR Expressing CFBE Cells The HRP-tagged AF508-CFTR cell assay measures the expression of CFTR-ΔF508 at the plasma membrane. […] When HRP-tagged AF508-CFTR is present at the plasma membrane, the HRP enzyme activity can be measured. The amount of CFTR-ΔF508 that can be rescued to the plasma membrane is correlated with the amount of functional enzyme that can be measured. […]
Report as a plain number; the unit % is understood.

# value lookup — system ΔF508-CFTR (Homo sapiens, UniProt P13569, DEL508-508), readout % Activation, item CC(C)c1nn(-c2ccc(F)cc2)c2nc(C(=O)O)cc(N3CC[C@@H](N4CCCCC4)C3)c12 [compound 786]
221.6

---

- SYSTEM: ΔF508-CFTR (Homo sapiens, UniProt P13569, DEL508-508)
- Construct: host or cells: CFBE41o-, doxycycline-inducible
- EXPERIMENT_DESCRIPTION: CFTR cell surface levels using HRP-tagged ΔF508-CFTR expressing CFBE cells, in the presence of a co-corrector
- Format: cell-based
- PROTOCOL_CONDITIONS: HRP-tagged ΔF508-CFTR expressing CFBE cells, in the presence of 3 μM co-corrector; read-out: EC50
One threshold, 400 nM, splits the recorded EC50 values: lower ones are condition met, equal or higher ones are condition not met.

Worked examples, 6 compounds total:
CC(C)c1nn(-c2ccc(F)cc2)c2nc(C(=O)O)cc(N3CCC(N4CCN(C5COC5)CC4)CC3)c12 [compound 744]; condition not met
CC(C)(C)c1nn(C2CCCCC2)c2nc(C(=O)O)cc(-c3cnc(N4CCOCC4)nc3)c12 [compound 149]; condition not met
O=C(O)c1cc(N2CCOC(CN3CCCCC3)C2)c2c(C3CCC3)nn(-c3ccccc3)c2n1 (stereo not shown) [compound 556]; condition not met
CC(C)c1nn(-c2ccc(F)cc2)c2nc(C(=O)O)cc(N3CCC(N(C)C(C)C)CC3)c12 [compound 799]; condition not met
COCC1CCCN(c2cc(C(=O)O)nc3c2c(C2CCC2)nn3-c2ccccc2)C1 (stereo not shown) [compound 373]; condition met
COC1(C)CCN(c2cc(C(=O)O)nc3c2c(C(C)C)nn3-c2ccc(F)cc2)CC1 [compound 397]; condition met

Record CC(C)c1nn(-c2cncc(N3CCOCC3)c2)c2nc(C(=O)O)cc(-c3ccc(N4CCOCC4)cc3)c12 [compound 211] : is its EC50 strictly below 400 nM?
condition not met

---

- SYSTEM: ΔF508-CFTR (Homo sapiens, UniProt P13569, DEL508-508)
- Construct: host or cells: CFBE41o-, doxycycline-inducible
- EXPERIMENT_DESCRIPTION: CFTR cell surface levels using HRP-tagged ΔF508-CFTR expressing CFBE cells, intrinsic corrector capacity
- Assay type: cell-based
- PROTOCOL_CONDITIONS: HRP-tagged ΔF508-CFTR CFBE41o- cells, compounds alone (intrinsic corrector capacity), 20 hours at 33° C.; positive control 3 μM corrector
- Text: Measuring CFTR Cell Surface Levels Using HRP-Tagged AF508-CFTR Expressing CFBE Cells The HRP-tagged AF508-CFTR cell assay measures the expression of CFTR-ΔF508 at the plasma membrane. […] When HRP-tagged AF508-CFTR is present at the plasma membrane, the HRP enzyme activity can be measured. The amount of CFTR-ΔF508 that can be rescued to the plasma membrane is correlated with the amount of functional enzyme that can be measured. […]
Rule: criterion met for % Activation not less than 300%, criterion not met for anything less.

Worked examples, 8 compounds total:
CC(C)c1nn(-c2cccc(N3CCCC3)c2)c2nc(C(=O)O)cc(-c3cnc(N4CCC(C#N)CC4)nc3)c12 [compound 259]; criterion met
COC1CCN(c2cc(C(=O)O)nc3c2c(C2CCC2)nn3-c2ccccc2)CC1 [compound 358]; criterion not met
CC(C)c1nn(-c2cccc(N(C)C)c2)c2nc(C(=O)O)cc(-c3ccc(N4CCC(C#N)CC4)cc3)c12 [compound 176]; criterion met
COCCN(C)c1ccc(-c2cc(C(=O)O)nc3c2c(C(C)C)nn3-c2cccc(N3CCOCC3)c2)cn1 [compound 179]; criterion met
CC(C)c1nn(C2CCCCC2)c2nc(C(=O)O)cc(-c3cn[nH]c3)c12 [compound 363]; criterion not met
COc1ccc(-c2cc(C(=O)O)nc3c2c(C)nn3C2CCCC2)cc1 [compound 3]; criterion not met
Cc1cccc(-n2nc(C(C)C)c3c(N4CCC(C(F)(F)F)C4)cc(C(=O)O)nc32)c1 (stereo not shown) [compound 215]; criterion not met
CC(C)c1nn(-c2cccc(N3CCCC3)c2)c2nc(C(=O)O)cc(-c3ccc(N(C)C4CCOCC4)nc3)c12 [compound 250]; criterion met

Is reported % Activation greater than or equal to 300% here: Cc1nn(-c2ccccc2)c2nc(C(=O)O)cc(N3CCC(C(=O)N(C)C)CC3)c12 [compound 319]
criterion not met

Is reported % Activation greater than or equal to 300% here: Cc1nn(-c2ccccc2)c2nc(C(=O)O)cc(N3CCC([C@H](F)CN(C)C)CC3)c12 [compound 314]
criterion not met

Is reported % Activation greater than or equal to 300% here: CC(C)c1nn(-c2cccc(F)c2)c2nc(C(=O)O)cc(-c3ccc(N(C)C4CCOCC4)cc3)c12 [compound 284]
criterion not met

Is reported % Activation greater than or equal to 300% here: CC(C)c1nn(-c2cccc(N(C)C)c2)c2nc(C(=O)O)cc(-c3ccc(N(C)C4CCOCC4)nc3)c12 [compound 189]
criterion met

Is reported % Activation greater than or equal to 300% here: Cc1nn(-c2ccccc2)c2nc(C(=O)O)cc(-c3ccc(N(C)C4CCC4)cc3)c12 [compound 115]
criterion not met

Is reported % Activation greater than or equal to 300% here: Cc1nn(-c2ccccc2)c2nc(C(=O)O)cc(OCC(=O)N3CCCCC3)c12 [compound 383]
criterion not met

Is reported % Activation greater than or equal to 300% here: CC(C)c1nn(-c2cccc(N(C)C)c2)c2nc(C(=O)O)cc(-c3cnc(N4CCOCC4)nc3)c12 [compound 84]
criterion not met
